Source listed as DBAASP.

Provide the reported MIC of each item.
# System: Pseudomonas aeruginosa ATCC 9027
# PROTOCOL_DETAILS: ≥ marks a high value that may be exact or a test limit, other limits are often not marked, values filed in µg/mL are converted to µM
The reply should be a number in µM, with the unit left off.

Query :: Please give measured MIC of the following entry: CC(C)C[C@H](NC(=O)[C@H](CCCCN)NC(=O)[C@H](CCCCN)NC(=O)[C@H](C)NC(=O)[C@H](CC(C)C)NC(=O)[C@H](CCCCN)NC(=O)[C@H](CCCCN)NC(=O)[C@H](CC(C)C)NC(=O)[C@H](CCCCN)NC(=O)[C@H](CCCCN)NC(=O)[C@H](C)NC(=O)[C@H](CC(C)C)NC(=O)[C@H](CCCCN)NC(=O)[C@H](CCCCN)NC(=O)[C@H](C)NC(=O)[C@@H](N)Cc1ccccc1)C(=O)N[C@@H](C)C(=O)N[C@@H](CCCCN)C(=O)O [FAKKLAKKLKKLAKKLAK]
Result :: 7.3

Query :: Please give measured MIC of the following entry: CC[C@H](C)[C@H](NC(=O)[C@H](CC(N)=O)NC(=O)[C@@H](NC(=O)[C@H](C)N)C(C)C)C(=O)N1CCC[C@H]1C(=O)N[C@@H](Cc1ccccc1)C(=O)N[C@@H](CCCCN)C(=O)N[C@H](C(=O)N[C@@H](Cc1cnc[nH]1)C(=O)N[C@@H](Cc1ccccc1)C(=O)N[C@@H](CCCN=C(N)N)C(=O)N[C@H]1CSSC[C@@H](C(=O)O)NC(=O)[C@H](Cc2ccccc2)NC(=O)[C@H](C)NC(=O)[C@H](C)NC(=O)[C@H](CCCCN)NC1=O)C(C)C [AVNIPFKVHFRCKAAFC]
Result :: 64

Query :: Please give measured MIC of the following entry: CC[C@H](C)[C@H](NC(=O)[C@H](C)N)C(=O)N[C@@H](Cc1c[nH]c2ccccc12)C(=O)N[C@@H](CCCN=C(N)N)C(=O)N[C@@H](CCCCN)C(=O)N[C@@H](C)C(=O)N[C@H](C(=O)N[C@@H](CCCN=C(N)N)C(=O)N[C@@H](CCCN=C(N)N)C(=O)N[C@@H](CC(C)C)C(=O)N[C@H](C(=O)N[C@@H](CCCCN)C(=O)N[C@@H](CC(C)C)C(=O)N[C@H](C(=O)N[C@H](C(N)=O)C(C)C)[C@@H](C)CC)C(C)C)[C@@H](C)O [AIWRKATRRLVKLIV]
Result :: 3

Query :: Please give measured MIC of the following entry: CC[C@H](C)[C@H](NC(=O)[C@H](CCCCN)NC(=O)[C@H](CCCCN)NC(=O)[C@H](C)NC(=O)[C@@H](NC(=O)[C@H](C)NC(=O)[C@H](CC(C)C)NC(=O)[C@H](CC(C)C)NC(=O)[C@H](C)NC(=O)[C@H](CCCCN)NC(=O)[C@H](CC(C)C)NC(=O)[C@H](CC(N)=O)NC(=O)[C@@H](N)CC(C)C)C(C)C)C(=O)N[C@@H](C)C(N)=O [LNLKALLAVAKKIA]
Result :: 32

###

Provide the reported log10 of MIC of each item.
Annotation: log10 of MIC, µM basis.

Query :: Send back Escherichia coli log10 of MIC of CC(C)C[C@H](NC(=O)[C@H](Cc1c[nH]c2ccccc12)NC(=O)CNC(=O)[C@H](CC(C)C)NC(=O)[C@@H](N)Cc1ccccc1)C(=O)N[C@@H](Cc1ccccc1)C(=O)N[C@@H](CCCCN)C(=O)N[C@H](C(=O)N[C@@H](C)C(=O)N[C@@H](CO)C(=O)N[C@@H](CCCCN)C(=O)O)C(C)C only.
Result :: 1.29

Query :: Send back Escherichia coli log10 of MIC of CC(C)C[C@H](NC(=O)[C@H](CCCCN)NC(=O)[C@H](CCCN=C(N)N)NC(=O)[C@H](Cc1ccccc1)NC(=O)[C@H](Cc1ccccc1)NC(=O)[C@H](CCCCN)NC(=O)[C@H](CCCCN)NC(=O)[C@H](Cc1ccccc1)NC(=O)[C@H](CCCN=C(N)N)NC(=O)[C@H](CCCCN)NC(=O)[C@@H](NC(=O)[C@@H](N)CC(C)C)C(C)C)C(=O)N[C@@H](CCCCN)C(=O)N[C@@H](CCCCN)C(=O)N[C@@H](CO)C(=O)N[C@H](C(N)=O)C(C)C only.
Result :: 1.19

Query :: Send back Escherichia coli log10 of MIC of CC[C@H](C)[C@H](NC(=O)[C@H](CCCCN)NC(=O)[C@@H](NC(=O)[C@H](CCC(N)=O)NC(=O)[C@@H](N)CCCN=C(N)N)[C@@H](C)CC)C(=O)N[C@@H](CCCN=C(N)N)C(=O)N[C@@H](CCCN=C(N)N)C(=O)N[C@@H](CCSC)C(=O)N[C@@H](CCCCN)C(=O)N[C@@H](Cc1c[nH]c2ccccc12)C(=O)N[C@@H](CCCN=C(N)N)C(N)=O only.
Result :: 0.55

Query :: Send back Escherichia coli log10 of MIC of CSCC[C@H](NC(=O)[C@@H](N)CC(=O)O)C(=O)N[C@@H](CC(C)C)C(=O)N[C@H](C(=O)N[C@H](C(=O)N[C@@H](CC(=O)O)C(=O)N1CCC[C@H]1C(=O)N[C@@H](CCCCN)C(=O)O)C(C)C)C(C)C only.
Result :: 3.51

Query :: Send back Escherichia coli log10 of MIC of CC(C)C[C@H](NC(=O)[C@@H](N)Cc1ccccc1)C(=O)NCC(=O)N[C@@H](CCCCN)C(=O)N[C@H](C(=O)N[C@@H](Cc1ccccc1)C(=O)N[C@@H](CCCCN)C(=O)N[C@@H](CCCCN)C(=O)N[C@H](C(=O)N[C@@H](CO)C(=O)N[C@@H](CCCCN)C(=O)N[C@H](C(=O)N[C@@H](Cc1ccccc1)C(=O)N1CCC[C@H]1C(=O)N[C@@H](C)C(=O)N[C@H](C(=O)N[C@@H](Cc1ccccc1)C(=O)NCC(=O)N[C@@H](CCCCN)C(=O)N[C@H](C(=O)O)C(C)C)C(C)C)C(C)C)C(C)C)C(C)C only.
Result :: 1.16
